Hey, just so you know, these numbers are from ChEMBL document CHEMBL3132824.

ASSAY METHOD TEXT: Selectivity ratio of CC50 for HIV-2 ROD mock-infected human MT4 cells to EC50 for HIV-2 ROD infected in human MT4 cells
Format: ADME, cell-based
COND: read-out: Ratio CC50/EC50
Readings of selectivity ratio for the listed molecules

# MOLECULE SMILES, RESULT
data = [
    ("O=C(CSc1nnccc1-c1cccc2ccccc12)Nc1ccccc1Cl", "< 1"),
    ("O=C(CSc1nnccc1-c1cccc2ccccc12)Nc1cccnc1Cl", "< 1"),
    ("O=C(CSc1nnccc1-c1cccc2ccccc12)Nc1ccccc1Br", "< 1"),
]

Any idea what its selectivity ratio is? The molecule is O=C(CSc1nnccc1-c1cccc2ccccc12)Nc1ccccc1
< 1

Any idea what its selectivity ratio is? The molecule is O=C(CSc1nnccc1-c1cccc2ccccc12)N1CCc2ccccc2C1
< 1

Any idea what its selectivity ratio is? The molecule is O=C(CSc1nnccc1-c1cccc2ccccc12)Nc1ccc(Cl)cc1Cl
< 1

Any idea what its selectivity ratio is? The molecule is CC(=O)c1ccc(NC(=O)CSc2nnccc2-c2cccc3ccccc23)c(Br)c1
< 1

Any idea what its selectivity ratio is? The molecule is Cc1ccc(NC(=O)CSc2nnccc2-c2cccc3ccccc23)c([N+](=O)[O-])c1
< 1

Any idea what its selectivity ratio is? The molecule is Cc1ccc(NC(=O)CSc2nnccc2-c2cccc3ccccc23)c(Br)c1
< 1

Any idea what its selectivity ratio is? The molecule is Cc1ccccc1NC(=O)CSc1nnccc1-c1cccc2ccccc12
< 1

Any idea what its selectivity ratio is? The molecule is O=C(CSc1nnccc1-c1cccc2ccccc12)Nc1ccccc1[N+](=O)[O-]
< 1

Any idea what its selectivity ratio is? The molecule is COC(=O)c1ccc(NC(=O)CSc2nnccc2-c2cccc3ccccc23)c(Br)c1
< 1

Any idea what its selectivity ratio is? The molecule is O=C(CSc1nnccc1-c1cccc2ccccc12)N1CCCc2ccccc21
< 1

Any idea what its selectivity ratio is? The molecule is O=C(CSc1nnccc1-c1cccc2ccccc12)Nc1ccccc1F
< 1

Any idea what its selectivity ratio is? The molecule is Cc1cn([C@H]2C[C@H](N=[N+]=[N-])[C@@H](CO)O2)c(=O)[nH]c1=O
56900

Any idea what its selectivity ratio is? The molecule is CCOC(=O)c1ccc(NC(=O)CSc2nnccc2-c2cccc3ccccc23)c(Br)c1
< 1

Any idea what its selectivity ratio is? The molecule is Nc1ccn([C@H]2CC[C@@H](CO)O2)c(=O)n1
> 74

Any idea what its selectivity ratio is? The molecule is O=C(CSc1nnccc1-c1cccc2ccccc12)c1ccc(Cl)cc1Cl
< 1

* * *

Readings of EC50 for the listed compounds
Tested on: Human immunodeficiency virus 2
ASSAY METHOD TEXT: Antiviral activity against HIV-2 ROD infected in human MT4 cells assessed as inhibition of virus-induced cytopathicity by MTT assay
Format: functional, organism-based
COND: Human immunodeficiency virus 2, ISOLATE ROD

Any idea what its EC50 is? The compound is Cc1ccccc1NC(=O)CSc1nnccc1-c1cccc2ccccc12
> 150 µM

Any idea what its EC50 is? The compound is O=C(CSc1nnccc1-c1cccc2ccccc12)Nc1ccccc1
> 174 µM

Any idea what its EC50 is? The compound is O=C(CSc1nnccc1-c1cccc2ccccc12)Nc1ccccc1Br
> 31.3 µM

Any idea what its EC50 is? The compound is CCOC(=O)c1ccc(NC(=O)CSc2nnccc2-c2cccc3ccccc23)c(Br)c1
> 239 µM

Any idea what its EC50 is? The compound is Nc1ccn([C@H]2CC[C@@H](CO)O2)c(=O)n1
1.28 µM

* * *

ASSAY METHOD TEXT: Cytotoxicity against HIV-2 ROD mock-infected human MT4 cells assessed as reduction in cell viability by MTT assay
Assay type: cell-based
COND: HIV-2 ROD mock-infected MT4 cells
VALUE TYPE: CC50 (µM)
Respond numerically; units are µM and should not be typed.

The following compounds have reported results that may help.
# MOLECULE SMILES, CC50, µM
rows = [
    ("Cc1ccccc1NC(=O)CSc1nnccc1-c1cccc2ccccc12", 150),
    ("O=C(CSc1nnccc1-c1cccc2ccccc12)N1CCCc2ccccc21", 35),
    ("Cc1ccc(NC(=O)CSc2nnccc2-c2cccc3ccccc23)c(Br)c1", 215),
    ("Cc1ccc(NC(=O)CSc2nnccc2-c2cccc3ccccc23)c([N+](=O)[O-])c1", 244),
    ("O=C(CSc1nnccc1-c1cccc2ccccc12)Nc1ccccc1Br", 31.3),
    ("O=C(CSc1nnccc1-c1cccc2ccccc12)Nc1ccc(Cl)cc1Cl", 232),
    ("O=C(CSc1nnccc1-c1cccc2ccccc12)Nc1ccccc1", 174),
    ("O=C(CSc1nnccc1-c1cccc2ccccc12)Nc1cccnc1Cl", 164),
]

Lab note: next compound to report on.
Any idea what its CC50 is? The compound is O=C(CSc1nnccc1-c1cccc2ccccc12)N1CCc2ccccc2C1
36.5

* * *

ASSAY METHOD TEXT: Cytotoxicity against HIV-1 3B mock-infected human MT4 cells assessed as reduction in cell viability by MTT assay
Assay type: cell-based
COND: HIV-1 3B mock-infected MT4 cells
VALUE TYPE: CC50 (µM)
Respond numerically; units are µM and should not be typed.

The following compounds have reported results that may help.
# MOLECULE SMILES, CC50 / µM
measured = [
    ("O=C(CSc1nnccc1-c1cccc2ccccc12)Nc1ccccc1F", 204),
    ("CC(=O)c1ccc(NC(=O)CSc2nnccc2-c2cccc3ccccc23)c(Br)c1", 46.3),
    ("O=C(CSc1nnccc1-c1cccc2ccccc12)Nc1cccnc1Cl", 156),
]

Any idea what its CC50 is? The compound is O=C(CSc1nnccc1-c1cccc2ccccc12)Nc1ccccc1Cl
34.2

Any idea what its CC50 is? The compound is Cc1ccccc1NC(=O)CSc1nnccc1-c1cccc2ccccc12
142

Any idea what its CC50 is? The compound is Cc1ccc(NC(=O)CSc2nnccc2-c2cccc3ccccc23)c([N+](=O)[O-])c1
204

Any idea what its CC50 is? The compound is O=C(CSc1nnccc1-c1cccc2ccccc12)Nc1ccccc1
203

Any idea what its CC50 is? The compound is Cc1ccc(NC(=O)CSc2nnccc2-c2cccc3ccccc23)c(Br)c1
182

Any idea what its CC50 is? The compound is O=C(CSc1nnccc1-c1cccc2ccccc12)c1ccc(Cl)cc1Cl
54.6

Any idea what its CC50 is? The compound is O=C(CSc1nnccc1-c1cccc2ccccc12)Nc1ccccc1Br
31.5

Any idea what its CC50 is? The compound is O=C(CSc1nnccc1-c1cccc2ccccc12)N1CCc2ccccc2C1
34

* * *

ASSAY METHOD TEXT: Selectivity ratio of CC50 for HIV-1 3B mock-infected human MT4 cells to EC50 for HIV-1 3B infected in human MT4 cells
Assay type: ADME, cell-based
COND: read-out: Ratio CC50/EC50
VALUE TYPE: selectivity ratio
Reply with just the number.

The following compounds have reported results that may help.
# COMPOUND, VALUE TYPE, RESULT NUMBER
records = [
    ("O=C(CSc1nnccc1-c1cccc2ccccc12)c1ccc(Cl)cc1Cl", "selectivity ratio", 10),
    ("O=C(CSc1nnccc1-c1cccc2ccccc12)Nc1cccnc1Cl", "selectivity ratio", 573),
    ("Cc1ccc(NC(=O)CSc2nnccc2-c2cccc3ccccc23)c(Br)c1", "selectivity ratio", 929),
    ("Cc1ccccc1NC(=O)CSc1nnccc1-c1cccc2ccccc12", "selectivity ratio", 130),
]

Any idea what its selectivity ratio is? The compound is O=C(CSc1nnccc1-c1cccc2ccccc12)Nc1ccccc1F
799

Any idea what its selectivity ratio is? The compound is CC(=O)c1ccc(NC(=O)CSc2nnccc2-c2cccc3ccccc23)c(Br)c1
370

Any idea what its selectivity ratio is? The compound is Cc1cn([C@H]2C[C@H](N=[N+]=[N-])[C@@H](CO)O2)c(=O)[nH]c1=O [ZIDOVUDINE]
12200

Any idea what its selectivity ratio is? The compound is O=C(CSc1nnccc1-c1cccc2ccccc12)Nc1ccccc1Br
151

Any idea what its selectivity ratio is? The compound is Cc1ccc(NC(=O)CSc2nnccc2-c2cccc3ccccc23)c([N+](=O)[O-])c1
1440

Any idea what its selectivity ratio is? The compound is O=C(CSc1nnccc1-c1cccc2ccccc12)Nc1ccccc1
105

Any idea what its selectivity ratio is? The compound is COC(=O)c1ccc(NC(=O)CSc2nnccc2-c2cccc3ccccc23)c(Br)c1
1110

Any idea what its selectivity ratio is? The compound is O=C(CSc1nnccc1-c1cccc2ccccc12)Nc1ccccc1Cl
177

Any idea what its selectivity ratio is? The compound is O=C(CSc1nnccc1-c1cccc2ccccc12)Nc1ccccc1[N+](=O)[O-]
2150

Any idea what its selectivity ratio is? The compound is CCOC(=O)c1ccc(NC(=O)CSc2nnccc2-c2cccc3ccccc23)c(Br)c1
420

Any idea what its selectivity ratio is? The compound is O=C(CSc1nnccc1-c1cccc2ccccc12)N1CCc2ccccc2C1
29
